Taken from paper PMC10786891.

Target: T1, EsCas13d, nuclease-dead (Eubacterium siraeum, UniProt B0MS50, R295A;H300A;R849A;H854A)
T1 sequence: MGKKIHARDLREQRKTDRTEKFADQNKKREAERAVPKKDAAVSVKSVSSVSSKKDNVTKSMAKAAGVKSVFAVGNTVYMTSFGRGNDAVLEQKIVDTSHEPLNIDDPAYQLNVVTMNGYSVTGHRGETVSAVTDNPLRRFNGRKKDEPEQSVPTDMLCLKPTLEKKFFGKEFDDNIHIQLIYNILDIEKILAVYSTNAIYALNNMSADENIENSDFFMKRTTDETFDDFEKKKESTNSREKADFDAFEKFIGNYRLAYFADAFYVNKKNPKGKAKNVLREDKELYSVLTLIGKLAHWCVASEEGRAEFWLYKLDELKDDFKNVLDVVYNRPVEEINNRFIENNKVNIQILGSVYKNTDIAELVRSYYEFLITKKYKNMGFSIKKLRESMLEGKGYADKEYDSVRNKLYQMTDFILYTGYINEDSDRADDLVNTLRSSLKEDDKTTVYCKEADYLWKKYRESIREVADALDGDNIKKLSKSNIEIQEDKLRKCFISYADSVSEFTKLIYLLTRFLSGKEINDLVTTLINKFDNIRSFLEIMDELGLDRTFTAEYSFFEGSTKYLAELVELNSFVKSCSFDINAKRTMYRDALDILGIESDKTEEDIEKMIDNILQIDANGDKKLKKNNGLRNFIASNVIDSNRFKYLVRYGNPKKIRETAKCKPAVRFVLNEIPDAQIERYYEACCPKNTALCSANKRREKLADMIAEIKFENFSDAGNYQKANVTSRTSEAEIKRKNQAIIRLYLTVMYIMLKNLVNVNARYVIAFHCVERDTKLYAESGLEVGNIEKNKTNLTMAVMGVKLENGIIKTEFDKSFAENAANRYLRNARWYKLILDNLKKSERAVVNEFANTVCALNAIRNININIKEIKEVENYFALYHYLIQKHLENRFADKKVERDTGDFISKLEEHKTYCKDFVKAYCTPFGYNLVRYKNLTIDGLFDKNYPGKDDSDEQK
Test: crRNA (strand 1, pre-loaded); Mg2+; 40 mM Tris-HCl pH 7.5, 150 mM NaCl, 6 mM MgCl2, 1 mM DTT, 0.1% Tween-20, 0.2 mg/ml BSA; 25 C; 10 min per concentration, then washed
Settings: tags: His6-TwinStrep-SUMO cleaved; N-terminal SNAP kept (SNAP-Surface 488); label: 3' end held by stalled T7 RNA polymerase
Threshold 30 nM. Kd below it: Condition met. Kd at it or above: Condition not met.

Here are 5 binders together with their reported answers.
Please indicate whether the reported Kd of target 1 insA 3' of 21,insC 3' of 3 (mixed) RNA 1: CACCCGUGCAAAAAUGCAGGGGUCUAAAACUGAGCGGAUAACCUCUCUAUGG RNA 2: GGGAAUGGAUCCACAUCUACGAAUUCGUACCAAUAGAGAGGUUAUCCGCUCCACCGAGAUCGGAAGAGCACACGU is strictly below 30 nM.
Condition met

Please indicate whether the reported Kd of target 3 insA 3' of 22,insU 3' of 6 (mixed) RNA 1: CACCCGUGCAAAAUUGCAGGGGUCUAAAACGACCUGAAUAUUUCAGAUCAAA RNA 2: GGGAAUGGAUCCACAUCUACGAAUUCGUUUAUUGAUCUGAAAUAUUCUAGGUCUGCAGAUCGGAAGAGCACACGU is strictly below 30 nM.
Condition not met

Please indicate whether the reported Kd of target 2 MT 5'PFS ACA 3'PFS CAU (mixed) RNA 1: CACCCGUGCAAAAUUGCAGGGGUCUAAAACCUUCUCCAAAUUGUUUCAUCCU RNA 2: GGGAAUGGAUCCACAUCUACGAAUUCACAAGGAUGAAACAAUUUGGAGAAGCAUAGAUCGGAAGAGCACACGU is strictly below 30 nM.
Condition met

Please indicate whether the reported Kd of target 1 A1G,A16C (mixed) RNA 1: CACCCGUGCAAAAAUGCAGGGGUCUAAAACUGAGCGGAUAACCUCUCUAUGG RNA 2: GGGAAUGGAUCCACAUCUACGAAUUCGUACCAUAGCGAGGUUAUCCGCUCGCCGAGAUCGGAAGAGCACACGU is strictly below 30 nM.
Condition not met

Please indicate whether the reported Kd of target 2 MT 5'PFS UUU 3'PFS AUG (mixed) RNA 1: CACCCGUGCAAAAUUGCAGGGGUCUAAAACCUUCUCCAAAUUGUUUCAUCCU RNA 2: GGGAAUGGAUCCACAUCUACGAAUUCUUUAGGAUGAAACAAUUUGGAGAAGAUGAGAUCGGAAGAGCACACGU is strictly below 30 nM.
Condition met

As a next step, examine the binder that follows.
Please indicate whether the reported Kd of target 1 U10A,U19A (mixed) RNA 1: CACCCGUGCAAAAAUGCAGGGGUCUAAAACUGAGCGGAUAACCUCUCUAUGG RNA 2: GGGAAUGGAUCCACAUCUACGAAUUCGUACCAAAGAGAGGUAAUCCGCUCACCGAGAUCGGAAGAGCACACGU is strictly below 30 nM.
Condition not met
